pIC50, Human immunodeficiency virus type 1 reverse transcriptase (Human immunodeficiency virus 1), per-entry values.
pIC50: −log10 of the molar value.
readout-kind: pIC50

# compound, reported-measurement
records = [
    ("Cc1cn([C@@H]2O[C@H](CO[Si](C)(C)C(C)(C)C)C3(OS(=O)(=O)C=C3N)[C@H]2O[Si](C)(C)C(C)(C)C)c(=O)[nH]c1=O (some centres not stated)", 5.21),
    ("CC(C)=CCOc1cc(NC(=S)c2ccoc2C)ccc1Cl", 7.62),
]

###

tested on: MT4; experiment: Inhibitory activity against HIV-2 in MT-4 cell culture.; type: functional, cell-based; details: Homo sapiens

# molecule, EC50
measured = [
    ("CC1=CNC(=O)N([C@@H]2O[C@H](CO[Si](C)(C)C(C)(C)C)[C@@]3(OS(=O)(=O)C=C3N)[C@H]2O[Si](C)(C)C(C)(C)C)C1", "> 10 µM"),
    ("CC1=CN([C@@H]2O[C@H](CO[Si](C)(C)C(C)(C)C)[C@@]3(OS(=O)(=O)C=C3N)[C@H]2O[Si](C)(C)C(C)(C)C)C(=O)NC1", "> 10 µM"),
    ("Cc1cn([C@@H]2O[C@H](CO[Si](C)(C)C(C)(C)C)[C@@]3(OS(=O)(=O)C=C3N)[C@H]2O[Si](C)(C)C(C)(C)C)c(=O)n(CCCO)c1=O", "> 2 µM"),
    ("Cc1cn([C@@H]2O[C@H](CO[Si](C)(C)C(C)(C)C)C3(OS(=O)(=O)C=C3N)[C@H]2O[Si](C)(C)C(C)(C)C)c(=O)[nH]c1=O (stereo partly specified)", "> 20 µM"),
    ("Cc1cn([C@@H]2O[C@H](CO[Si](C)(C)C(C)(C)C)[C@@]3(OS(=O)(=O)C=C3N)[C@H]2O[Si](C)(C)C(C)(C)C)c(=O)[nH]c1=S", "> 10 µM"),
    ("Cc1cn([C@@H]2O[C@H](CO[Si](C)(C)C(C)(C)C)[C@@]3(OS(=O)(=O)C=C3N)[C@H]2O[Si](C)(C)C(C)(C)C)c(=O)n(C)c1=O", "> 200 µM"),
]

###

Recorded pIC50 values for a group of compounds are listed next.
molecular target: Human immunodeficiency virus type 1 reverse transcriptase (Human immunodeficiency virus 1, UniProt Q72547, R172A); test: Inhibitory activity against R172A mutant reverse transcriptase
pIC50: −log10 of the molar value.

# compound, pIC50
rows = [
    ("Cc1cn([C@@H]2O[C@H](CO[Si](C)(C)C(C)(C)C)C3(OS(=O)(=O)C=C3N)[C@H]2O[Si](C)(C)C(C)(C)C)c(=O)[nH]c1=O (some centres not stated)", 6.20),
    ("CC(C)=CCOc1cc(NC(=S)c2ccoc2C)ccc1Cl", 7.68),
]

###

tested on: CCRF-CEM; assay: Inhibitory activity against HIV-1 in CEM cell culture.; type: functional, cell-based; conditions: Homo sapiens
Recorded log10 of EC50 values for a group of compounds are listed next.
readout-kind: log10 of EC50 (log10 of the value in µM)

# given-smiles, reported-measurement
rows = [
    ("Cc1cn([C@@H]2O[C@H](CO[Si](C)(C)C(C)(C)C)[C@@]3(OS(=O)(=O)C=C3N)[C@H]2O[Si](C)(C)C(C)(C)C)c(=O)n(C)c1=O", -1.22),
    ("CC1=CN([C@@H]2O[C@H](CO[Si](C)(C)C(C)(C)C)[C@@]3(OS(=O)(=O)C=C3N)[C@H]2O[Si](C)(C)C(C)(C)C)C(=O)NC1", -1.00),
    ("Cc1cn([C@@H]2O[C@H](CO[Si](C)(C)C(C)(C)C)[C@@]3(OS(=O)(=O)C=C3N)[C@H]2O[Si](C)(C)C(C)(C)C)c(=O)[nH]c1=S", -0.77),
    ("Cc1cn([C@@H]2O[C@H](CO[Si](C)(C)C(C)(C)C)[C@@]3(OS(=O)(=O)C=C3N)[C@H]2O[Si](C)(C)C(C)(C)C)c(=O)n(CCCO)c1=O", -2.00),
    ("CC1=CNC(=O)N([C@@H]2O[C@H](CO[Si](C)(C)C(C)(C)C)[C@@]3(OS(=O)(=O)C=C3N)[C@H]2O[Si](C)(C)C(C)(C)C)C1", -0.92),
]
